- Experiment description: Test of acute toxicity in mice
- Format: in vivo
- Condition details: mouse, in vivo, po
Quantity name: LD50

I'd like to know its LD50. The compound in question is Cc1c(C)c2c(c(C)c1OC(=O)c1cccnc1)CCC(C)(CCCC(C)CCCC(C)CCCC(C)C)O2 (racemic) [Compound TN, dl-α-tocopherol nicotinate]
> 20000 mg/kg

---

- Experiment description: Test of acute toxicity in rats
- Type: in vivo
- Condition details: rat, in vivo, ip
Quantity name: LD50

Which LD50 reading was recorded for the compound Cc1c(C)c2c(c(C)c1OC(=O)c1cccnc1)CCC(C)(CCCC(C)CCCC(C)CCCC(C)C)O2 (racemic) [Compound TN, dl-α-tocopherol nicotinate] ?
> 2000 mg/kg

---

- Experiment description: Test of acute toxicity in rats
- Format: in vivo
- Condition details: rat, in vivo, po
Quantity name: LD50

Give the measured LD50 of Cc1c(C)c2c(c(C)c1OC(=O)c1cccnc1)CCC(C)(CCCC(C)CCCC(C)CCCC(C)C)O2 (racemic) [Compound TN, dl-α-tocopherol nicotinate] .
> 15000 mg/kg

---

- Experiment description: Test of acute toxicity in mice
- Format: in vivo
- Condition details: mouse, in vivo, im
Quantity name: LD50

What value of measured LD50 is listed for Cc1c(C)c2c(c(C)c1OC(=O)c1cccnc1)CCC(C)(CCCC(C)CCCC(C)CCCC(C)C)O2 (racemic) [Compound TN, dl-α-tocopherol nicotinate] ?
> 15000 mg/kg

---

- Experiment description: Test of acute toxicity in mice
- Format: in vivo
- Condition details: mouse, in vivo, ip
- Experimental: Acute toxicity of Compound TN for males and females of mice rats were tested.
Quantity name: LD50

# query: LD50 of entry Cc1c(C)c2c(c(C)c1OC(=O)c1cccnc1)CCC(C)(CCCC(C)CCCC(C)CCCC(C)C)O2 (racemic) [Compound TN, dl-α-tocopherol nicotinate]
> 4000 mg/kg

---

- Experiment description: Test of acute toxicity in rats
- Assay type: in vivo
- Condition details: rat, in vivo, im
Quantity name: LD50

# lookup: LD50 of Cc1c(C)c2c(c(C)c1OC(=O)c1cccnc1)CCC(C)(CCCC(C)CCCC(C)CCCC(C)C)O2 (racemic) [Compound TN, dl-α-tocopherol nicotinate]
> 10000 mg/kg

---

- Experiment description: Test of acute toxicity in mice
- Format: in vivo
- Condition details: mouse, in vivo, iv
Quantity name: LD50

GET /values?readout=LD50&item= Cc1c(C)c2c(c(C)c1OC(=O)c1cccnc1)CCC(C)(CCCC(C)CCCC(C)CCCC(C)C)O2 (racemic) [Compound TN, dl-α-tocopherol nicotinate]
> 1000 mg/kg

---

- Experiment description: Test of acute toxicity in rats
- Assay type: in vivo
- Condition details: rat, in vivo, sc
- Protocol: Acute toxicity of Compound TN for males and females of mice rats were tested.
Quantity name: LD50

Look at this compound and give its reported LD50. Cc1c(C)c2c(c(C)c1OC(=O)c1cccnc1)CCC(C)(CCCC(C)CCCC(C)CCCC(C)C)O2 (racemic) [Compound TN, dl-α-tocopherol nicotinate]
> 15000 mg/kg

---

- Experiment description: Test of acute toxicity in rats
- Type: in vivo
- Condition details: rat, in vivo, iv
Quantity name: LD50

Report LD50 for Cc1c(C)c2c(c(C)c1OC(=O)c1cccnc1)CCC(C)(CCCC(C)CCCC(C)CCCC(C)C)O2 (racemic) [Compound TN, dl-α-tocopherol nicotinate] please.
> 250 mg/kg
